experiment: Toxicity liver stage against HepG2, at 10uM; type: cell-based; set-up: test concentration 10 uM, cell line HepG2-A16-CD81EGFP; settings: human, HepG2-A16-CD81EGFP cells; read-out: INHIBITION
# cytotoxicity at 10 µM per record follows
# unit: % | format: bare number

Guide cases for cytotoxicity at 10 µM, answers given:
molecule | reported.result
Cc1nn(CCO)c(C)c1CNC1CCc2c(F)cccc21 (stereo unspecified) | 4.59
CC(C)(C)N1CC(C(=O)NCc2noc(Cc3ccccc3)n2)CC1=O (stereo unspecified) | 0.824
CCn1c(NCC2CCCO2)nc2c(C)nn(C)c2c1=O (stereo unspecified) | -3.09
CC(=O)c1c(F)cccc1N1CCC(Cc2cccnc2)CC1 | 43.6
CN(Cc1ncc(-c2ccccc2)o1)CC1CCCN1c1cccnn1 (stereo unspecified) | 3.75
CN1CC=C(c2noc(CCC(=O)N3CCc4ccccc43)n2)CC1 | 7.22

cytotoxicity at 10 µM measured on O[C@@H]1C[C@H]2CN(Cc3ccccc3)[C@H](Cc3ccccc3)CN2C1 = -0.658

cytotoxicity at 10 µM measured on Cc1cccc(C(C)(C)CNC(=O)CN(C)S(=O)(=O)c2cccnc2)c1 = 7.41

cytotoxicity at 10 µM measured on COCCN(C)C(=O)c1ccccc1-n1cccn1 = -4.57

cytotoxicity at 10 µM measured on c1ccc(CCN2CCCC2c2cncc(Nc3nncs3)n2)cc1 (stereo unspecified) = 5.62

cytotoxicity at 10 µM measured on Nc1cc2c(nn1)CCN(C(=O)c1ccc(Oc3cccnc3)cc1)C2 = 6.27

cytotoxicity at 10 µM measured on CNc1nc(C2CCN(C(=O)CC3CCCC3)C2)nc2c1CN(C)CC2 (stereo unspecified) = -40.4

cytotoxicity at 10 µM measured on N#Cc1ccccc1CN1CCCCC1Cn1cncn1 (stereo unspecified) = -4.13

cytotoxicity at 10 µM measured on O=C(CCc1cc(Br)cs1)NCCCn1ccnc1 = 1.08

cytotoxicity at 10 µM measured on CN(CC(=O)NCC(=O)Nc1ccc(F)cc1)Cc1cccs1 = 0.369

cytotoxicity at 10 µM measured on COCCNC(=O)c1cc(F)ccc1NS(C)(=O)=O = -1.23

cytotoxicity at 10 µM measured on CC(C)(C)c1ncc(C(=O)N2CCC(N3CCSCC3)CC2)c(O)n1 = 0.382

cytotoxicity at 10 µM measured on CCOCCCn1c(NC(=O)c2cnc(C)cn2)nc2ccccc21 = -18.7

cytotoxicity at 10 µM measured on O=C(c1cc2c(F)cccc2[nH]1)N1CCCCC1Cn1cccn1 (stereo unspecified) = -7.95

cytotoxicity at 10 µM measured on O=C(NCC1Cn2nnc(-c3ccccc3)c2CO1)c1ccc[nH]1 (stereo unspecified) = -1.2

cytotoxicity at 10 µM measured on Cc1nc(-c2ccccc2)n(CC(=O)NC2CCCCC2)n1 = -1.16

---

experiment: Toxicity liver stage against HepG2, at 10uM; format: cell-based; set-up: test concentration 10 uM, cell line HepG2-A16-CD81EGFP; details: human, HepG2-A16-CD81EGFP cells; read-out: INHIBITION
measurement.type: cytotoxicity at 10 µM (%)
# unit: % | format: bare number

Guide cases for cytotoxicity at 10 µM, answers given:
compound | measurement.type | reported.result
Cc1oc(C(=O)Nc2ccccc2F)cc1S(N)(=O)=O | cytotoxicity at 10 µM | -1.07
CNC(=O)C1Cn2ccnc2C2(CCN(Cc3csc(C)n3)CC2)O1 (stereo not drawn) | cytotoxicity at 10 µM | -151
CC(C)(C)c1ncc2c(n1)CN(C(=O)c1ccc(-c3nc[nH]n3)cc1)C2 | cytotoxicity at 10 µM | -16.8

Now for the compound whose cytotoxicity at 10 µM we want.
cytotoxicity at 10 µM measured on COCCN1C(=O)CO[C@H]2CN(S(=O)(=O)c3ccccc3)C[C@H]21 = -0.843

---

# cytotoxicity at 10 µM per record follows
test: Toxicity liver stage against HepG2, at 10uM; assay type: cell-based; design: test concentration 10 uM, cell line HepG2-A16-CD81EGFP; conditions: human, HepG2-A16-CD81EGFP cells; read-out: INHIBITION
# unit: % | format: bare number

Guide cases for cytotoxicity at 10 µM, answers given:
compound | cytotoxicity at 10 µM [%]
Cc1cnc(N2CCC3(CCCN(c4ccc(C)nn4)C3)C2)nc1 (stereo not drawn) | -20.7
CC(C)N1CCO[C@H]2CN(C(=O)c3ccoc3)C[C@H]21 | -0.207
O=C(Cc1cccs1)N1CCOC(c2cccc(O)c2)C1 (stereo not drawn) | 0.631
CCOC(=O)NCCC(O)c1ccoc1 (stereo not drawn) | -10.5
Cc1cccc(CN(Cc2ccccn2)Cc2ncc(C(C)(C)C)o2)c1 | 3.49
CC(C)(C)OC(=O)N1CCC[C@H](NCc2cc[nH]c2)C1 | 1.05

cytotoxicity at 10 µM measured on Cn1c(=O)c2cc(C(=O)NCc3ccccn3)ccc2n(C)c1=O = -6.14

cytotoxicity at 10 µM measured on Cc1ccccc1-c1cncc(C2CCN(CC(=O)N(C)C)CC2)n1 = -12.5

---

test: Toxicity liver stage against HepG2, at 10uM; type: cell-based; parameters: test concentration 10 uM, cell line HepG2-A16-CD81EGFP; conditions: human, HepG2-A16-CD81EGFP cells; read-out: INHIBITION
# cytotoxicity at 10 µM per record follows
# unit: % | format: bare number

Guide cases for cytotoxicity at 10 µM, answers given:
compound | reported.result
CC(C)Cc1cc(C(=O)NCCc2nnc(N)s2)n(C)n1 | 0.649
CC(C)(C)NC(=O)CNc1ccc(C#N)c(C(F)(F)F)c1 | -1.28
Cc1ccccc1CC(C)(C)NC(=O)c1cccc(OCC(N)=O)c1 | 2.93
Fc1ccc(C(NCc2nnc(-c3ccco3)o2)C2CCC2)cc1 (stereo not given) | -36.3
Cc1nn2c(N3CCS(=O)(=O)CC3)cc(-c3ccccc3)nc2c1C | -6.43
O=S(=O)(C1CC1)N1CCC2(CC1)COC(COc1cccnc1)C2 (stereo not given) | 9.49

cytotoxicity at 10 µM measured on O=C(c1ccc(N2CCCC2)nn1)N1CCc2ccccc21 = 2.6

cytotoxicity at 10 µM measured on CC(=O)NCC1CCC2(CCN(c3ncc(C)cn3)CC2)O1 (stereo not given) = -3.09

cytotoxicity at 10 µM measured on Cc1ncc2c(n1)CCN(Cc1ncc(C(C)(C)C)o1)C2 = 14

cytotoxicity at 10 µM measured on CN1C(=O)CC(c2cnn(C)c2)C12CCN(C(=O)c1ccco1)CC2 (stereo not given) = -75.5

cytotoxicity at 10 µM measured on CCc1nccn1CCCNC(=O)CN1CCN(c2ncccn2)CC1 = -7.54

cytotoxicity at 10 µM measured on COc1cccc(OCC(=O)NS(=O)(=O)c2ccc(C)s2)c1 = -5.87

---

assay: Toxicity liver stage against HepG2, at 10uM; type: cell-based; design: test concentration 10 uM, cell line HepG2-A16-CD81EGFP; conditions: human, HepG2-A16-CD81EGFP cells; read-out: INHIBITION
# cytotoxicity at 10 µM per record follows
# unit: % | format: bare number

Guide cases for cytotoxicity at 10 µM, answers given:
molecule | measurement.type | reported.result
CN(Cc1ccc(C#N)cc1)Cn1nccc1-c1cccnc1 | cytotoxicity at 10 µM | 8.4
Cc1cc(CN2CCc3cncnc3C2)on1 | cytotoxicity at 10 µM | 4.13
COCc1ncn2c1CN(C(=O)c1ccc[nH]1)CC2 | cytotoxicity at 10 µM | 1.84

cytotoxicity at 10 µM measured on c1nc(N2CCOC(Cn3cncn3)C2)c2cc[nH]c2n1 (stereo not drawn) = -7.97

cytotoxicity at 10 µM measured on CCc1noc(CN(C)C(=O)COc2cc(Cl)cc(Cl)c2)n1 = -0.966

cytotoxicity at 10 µM measured on O=C(CNc1cc2c(cc1Cl)OCCO2)NCC(F)(F)F = 0.49

cytotoxicity at 10 µM measured on Cc1nn(C)c(C)c1CC(=O)NCc1cccnc1N1CCOCC1 = -139

cytotoxicity at 10 µM measured on Cc1ccc(C2CSCCN2C(=O)c2ccnc(N(C)C)c2)o1 (stereo not drawn) = 12.8

---

experiment: Toxicity liver stage against HepG2, at 10uM; format: cell-based; design: test concentration 10 uM, cell line HepG2-A16-CD81EGFP; conditions: human, HepG2-A16-CD81EGFP cells; read-out: INHIBITION
measurement.type: cytotoxicity at 10 µM (%)
# unit: % | format: bare number

Guide cases for cytotoxicity at 10 µM, answers given:
compound | measurement.type | reported.result
COc1ccc(-c2cn(CCn3c(C)cc(C)nc3=O)nn2)cn1 | cytotoxicity at 10 µM | 6.05
Cc1cc(CN(C)C(=O)C2CC(c3cccc(F)c3)=NO2)no1 (stereo not given) | cytotoxicity at 10 µM | 5.91

cytotoxicity at 10 µM measured on CCOc1ccc(C(=O)CCC(=O)NCc2cncn2CC)cc1C = 0.902

cytotoxicity at 10 µM measured on O=C1CN(Cc2nnc(-c3ccc(Br)o3)o2)CCN1 = 13.5

cytotoxicity at 10 µM measured on Cn1cnc2c1C(COCc1ccccc1)N(Cc1cccnc1)CC2 (stereo not given) = 9.61

Source listed as ChEMBL document CHEMBL4513216.
